Kindly state normalized growth for each of the entries shown.
assay: chemical genetic growth profiling, strain panel (AID 1159580);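 also: tested at 20 µM; growth read once vehicle control cultures reached saturation at 30 °C; 1 = growth at the plate median or of vehicle wells; lower values mean less growth of the strain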; settings: S. cerevisiae deletion strains, growth OD, locus YOR001W, strain rrp6, active compounds read low
About 2,000 (36%) of roughly 5,500 compounds were called active. About 18% were inconclusive and are not listed. This is one part of the list.
Answer as a number with no unit attached.

Qu. What value of normalized growth has been reported for the following compound? CCCC(CCC)C(=O)O
Ans. 1.01

Qu. What value of normalized growth has been reported for the following compound? CCC(=O)Nc1ccc(Cl)c(Cl)c1
Ans. 0.994

Qu. What value of normalized growth has been reported for the following compound? O=c1cc(-c2ccc(O)cc2)oc2cc(O)ccc12
Ans. 0.979

Qu. What value of normalized growth has been reported for the following compound? O=[N+]([O-])c1cccc2cn[nH]c12
Ans. 1

Qu. What value of normalized growth has been reported for the following compound? O=[N+]([O-])c1cccc2c(Br)[nH]nc12
Ans. 0.928

Qu. What value of normalized growth has been reported for the following compound? NS(=O)(=O)c1cc2c(cc1Cl)NC(C1CC3C=CC1C3)NS2(=O)=O (stereo not drawn)
Ans. 0.997

Qu. What value of normalized growth has been reported for the following compound? C/C=C/C(=O)N(CC)c1ccccc1C
Ans. 1.03

Qu. What value of normalized growth has been reported for the following compound? C[C@H](CCC(=O)O)[C@H]1CCC2C3C(CC[C@@]21C)[C@@]1(C)CC[C@@H](O)C[C@H]1C[C@H]3O (stereo partly drawn)
Ans. 0.979

Qu. What value of normalized growth has been reported for the following compound? Nc1cc(-c2ccncc2)c[nH]c1=O
Ans. 0.967

Qu. What value of normalized growth has been reported for the following compound? Cc1cc(=O)oc2c(O)c(O)ccc12
Ans. 0.988

Qu. What value of normalized growth has been reported for the following compound? Nc1ccn(C2O[C@H](CO)[C@@H](O)[C@H]2O)c(=O)n1 (stereo partly drawn)
Ans. 0.98

Qu. What value of normalized growth has been reported for the following compound? NC(=O)c1ncn(C2O[C@H](CO)[C@@H](O)[C@H]2O)c1N (stereo partly drawn)
Ans. 1.02

Qu. What value of normalized growth has been reported for the following compound? CC(=O)Nc1ccccc1
Ans. 0.979

Qu. What value of normalized growth has been reported for the following compound? COc1c(Cl)ccc(Cl)c1C(=O)O
Ans. 0.991

Qu. What value of normalized growth has been reported for the following compound? CCCCCC1C(=O)CCC1CC(=O)O (stereo not drawn)
Ans. 0.997

Qu. What value of normalized growth has been reported for the following compound? C[C@H](N)[C@H](O)c1cccc(O)c1
Ans. 1.01

Qu. What value of normalized growth has been reported for the following compound? OC[C@H]1OC([S-])[C@H](O)[C@@H](O)[C@@H]1O.[Au+] (stereo partly drawn)
Ans. 1.02

Qu. What value of normalized growth has been reported for the following compound? COc1ccc(C(=O)N2CCCC2=O)cc1
Ans. 0.998

Qu. What value of normalized growth has been reported for the following compound? O=C(Nc1ccccc1)Nc1ccccc1
Ans. 0.957

Qu. What value of normalized growth has been reported for the following compound? COc1cc([C@H]2Oc3cc([C@H]4Oc5cc(O)cc(O)c5C(=O)[C@@H]4O)ccc3O[C@@H]2CO)ccc1O
Ans. 1.01

Qu. What value of normalized growth has been reported for the following compound? CCCCCC1C(=O)CCC1CC(=O)OC (stereo not drawn)
Ans. 0.977

Qu. What value of normalized growth has been reported for the following compound? CN1CCN(C2=Nc3ccccc3Oc3ccc(Cl)cc32)CC1
Ans. 0.995

Qu. What value of normalized growth has been reported for the following compound? N[C@@H]1[C@@H](O)[C@H](O)[C@@H](CO)O[C@H]1O
Ans. 1.04

Qu. What value of normalized growth has been reported for the following compound? CC1(C)C(O)CC(O)C2(C)C1CC(O)C1(C)C2CCC2(C)C(c3ccoc3)OC(=O)C3OC321 (stereo not drawn)
Ans. 1

Qu. What value of normalized growth has been reported for the following compound? CCN(CCCc1ccccc1)CCCc1ccccc1
Ans. 0.982

Qu. What value of normalized growth has been reported for the following compound? NC(N)=O
Ans. 1.02

Qu. What value of normalized growth has been reported for the following compound? O=c1cc(-c2ccccc2)oc2cccc(O)c12
Ans. 0.911

Qu. What value of normalized growth has been reported for the following compound? C[C@]12C=CC(=O)C=C1CCC1C3C[C@@H](O)[C@](O)(C(=O)CO)[C@@]3(C)C[C@H](O)[C@@]12F (stereo partly drawn)
Ans. 1.02
